# Run description: gradient 5% acetonitrile 3 min, to 50% in 2 min, to 85% in 15 min, held 3 min, 100 µL/min
# Test context: column: Zorbax Extend-C18 2.1 x 50 mm; eluents: water / acetonitrile, 0.1% formic acid
Assay metric: RP-LC retention time (s)
All answers are understood in s, so give the number only.

[[record]]
compound = "Clc1ccc(Cc2nnc3sc(-c4ccc5ccccc5n4)nn23)cc1"
measured = 1210

[[record]]
compound = "CCOC(=O)c1c(C)n(CCNC(C)=O)c2cc(Br)c(OC)cc12"
measured = 706

[[record]]
compound = "O=[N+]([O-])c1ccc(CNc2nc(NCc3cccc(C(F)(F)F)c3)nc3nc[nH]c23)cc1"
measured = 790

[[record]]
compound = "CCc1nn(CC(=O)NCCc2c[nH]c3ccccc23)c(=O)c2cc3sc(C)cc3n12"
measured = 894

[[record]]
compound = "CCOC(=O)Cc1ccc(NC(=O)N2CCCC2c2cccs2)cc1 (centres undefined)"
measured = 921

[[record]]
compound = "CCOC(=O)C1=CN(Cc2ccccc2)S(=O)(=O)N=C1C"
measured = 970

[[record]]
compound = "Cn1cnc2ccc(-c3noc(-c4ccc(F)cc4)n3)cc21"
measured = 739

[[record]]
compound = "O=C(CCc1c(-c2ccc(Cl)cc2)nc2ccccn12)NC1CCCC1"
measured = 638

[[record]]
compound = "CCn1cc(CC(=O)NCCC(C)C)c2cccnc21"
measured = 706

[[record]]
compound = "CC(C)N1C(=O)c2cccnc2Sc2cc(C(=O)NCC3CCCO3)ccc21 (centres undefined)"
measured = 695


Report RP-LC retention time for CCOc1nc2ccccc2nc1N1CCCC(C(=O)Nc2ccc(F)c(Cl)c2)C1 (centres undefined) please.
797

Would you kindly repeat that for `COc1ccc(CCc2nc(-c3ccc4oc(C)nc4c3)no2)cc1` ?
1210

Do the same for `Cc1nc2c(sc3nc(-c4ccccc4)ccc32)c(=O)n1CC(=O)Nc1ccc(F)c(Cl)c1` please
1140

And the next one, `Cc1oc2ccn(Cc3cccc(F)c3)c(=O)c2c1C(=O)NCc1ccccc1F` ?
1060

Another compound: `CCOC(=O)C1CCN(c2nc(-c3ccc(OC)cc3)no2)CC1`
981

Record: `CN(C)C(=O)c1ccc2c(c1)nc(CN(C)C(=O)Nc1ccc(Cl)cc1)n2C`
616

Then `Cn1cc2c3c(cccc31)CN(C(=O)c1ccc(F)c(Cl)c1)CC2` ?
1070

Try `COCc1cc(=O)n(CC(=O)NCc2ccc(F)c(Cl)c2)c(N)n1` next.
625

// same read-out, input: `Cc1oc(C2CCN(C(=O)Nc3ccc4c(c3)CCC4)CC2)nc1C(=O)N(C)C`
766

Now give it for `N#Cc1cccc(NC(=O)C2CCN(S(=O)(=O)c3cc(-c4noc(C5CCC5)n4)cs3)CC2)c1` too.
1070

Likewise for COc1ccc(Cl)c(Cn2c(NCC3CCCO3)nc3c2c(=O)n(C)c(=O)n3C)c1 (centres undefined) ?
801

Also, `O=C([C@@H]1C[C@H](F)CN1S(=O)(=O)c1cccc(F)c1)N1CCc2ccccc2C1` please.
920

Same question for `COc1ccc(OC)c(S(=O)(=O)N2CCC(n3c(C)cnc3C)CC2)c1` please.
630

Next: `CN1CCCc2cc(C(=O)NCc3cccc(F)c3)sc21`
915

Same again, this time with `Cc1ccc(-c2ccc3nn(CC(=O)NC4CCCCC4)c(=O)n3n2)cc1C`
792

Consider next the compound CCOC(=O)COc1ccccc1C1CC(c2ccc(Br)cc2)=NN1C(C)=O (centres undefined) in the same way.
1050
